Taken from patent US20240158430A1.

# System: colorectal cancer cell line HCT116
# testSummary: Cell growth inhibitory activity, HCT116
# Format: cell-based
# details: Homo sapiens, HCT-116; Table 3; HCT116, cell count after 72 hours of culture vs DMSO control; read-out: IC50
quantityMeasured: pIC50
Numbers only, as −log10 of the molar value.

Case COc1cc(/C=C/C(=O)CC(=O)/C=C/c2ccc(O)c(OC)c2)ccc1O [curcumin, reference compound] , colorectal cancer cell line HCT116, pIC50 recorded as 4.80

----------
# Test system: cutaneous T-cell lymphoma cell line HH
# testSummary: Cell growth inhibitory activity, HH
# Type: cell-based
# details: Table 10
quantityMeasured: IC50 (µM)
Give bare numbers, in µM.

[[record]]
compound = "COc1cc(/C=C/C(=O)/C=C/c2ccc(O)c(OC)c2)ccc1O [GO-Y022, reference compound]"
observedvalue = 9.16

[[record]]
compound = "COCOc1cc(/C=C/C(=O)CC(SCCOCCOCCOCCOCc2cn([C@H]3O[C@H](CO)[C@@H](O)[C@H](O)[C@@H]3O)nn2)c2cc(OCOC)cc(OCOC)c2)cc(OCOC)c1 (some centres unmarked)"
observedvalue = 1.15

[[record]]
compound = "COCOc1cc(/C=C/C(=O)CC(SCCOCCOCCOCCOCc2cn([C@@H]3O[C@H](CO)[C@@H](O[C@@H]4O[C@H](CO)[C@H](O)[C@H](O)[C@H]4O)[C@H](O)[C@H]3O)nn2)c2cc(OCOC)cc(OCOC)c2)cc(OCOC)c1 (some centres unmarked)"
observedvalue = 1.11

[[record]]
compound = "COCOc1cc(/C=C/C(=O)CC(SCCOCCOCCOCCOCc2cn([C@H]3O[C@@H](CO)[C@H](O)[C@@H](O)[C@@H]3O)nn2)c2cc(OCOC)cc(OCOC)c2)cc(OCOC)c1 (some centres unmarked)"
observedvalue = 1.11


The record that follows has no IC50 shown yet.
Lab book: IC50 of COCOc1cc(/C=C/C(=O)CC(SCCOCCOCCOCCOCc2cn([C@@H]3O[C@H](CO)[C@@H](O[C@H]4O[C@H](CO)[C@@H](O)[C@H](O)[C@H]4O)[C@H](O)[C@H]3O)nn2)c2cc(OCOC)cc(OCOC)c2)cc(OCOC)c1 (some centres unmarked) noted as 1.31

----------
# System: gastric cancer cell line KATO III
# testSummary: Cell growth inhibitory activity, KATO III
# Assay type: cell-based
# details: Homo sapiens, KATO III; Table 6; read-out: IC50 (μM) KATO III
quantityMeasured: IC50 (µM)
Numbers only, in µM.

Case COc1cc(/C=C/C(=O)CC(=O)/C=C/c2ccc(O)c(OC)c2)ccc1O [curcumin, reference compound] , gastric cancer cell line KATO III, IC50 recorded as 11

----------
Please go through the items and note down their IC50.
# System: malignant pleural mesothelioma cell line NCI-H226
# testSummary: Cell growth inhibitory activity, NCI-H226
# Format: cell-based
# details: Table 8

Observe how each entry below is paired with its result.
[[record]]
compound = "COCOc1cc(/C=C/C(=O)CC(SCCOCCOCCOCCOCc2cn([C@H]3O[C@@H](CO)[C@H](O)[C@@H](O)[C@@H]3O)nn2)c2cc(OCOC)cc(OCOC)c2)cc(OCOC)c1 (stereo partly shown)"
targetsystem = "malignant pleural mesothelioma cell line NCI-H226"
quantitymeasured = "IC50"
observedvalue = "4 µM"

[[record]]
compound = "COCOc1cc(/C=C/C(=O)CC(SCCOCCOCCOCCOCc2cn([C@@H]3O[C@H](CO)[C@@H](O[C@@H]4O[C@H](CO)[C@H](O)[C@H](O)[C@H]4O)[C@H](O)[C@H]3O)nn2)c2cc(OCOC)cc(OCOC)c2)cc(OCOC)c1 (stereo partly shown)"
targetsystem = "malignant pleural mesothelioma cell line NCI-H226"
quantitymeasured = "IC50"
observedvalue = "4.7 µM"

[[record]]
compound = "COCOc1cc(/C=C/C(=O)CC(SCCOCCOCCOCCOCc2cn([C@@H]3O[C@H](CO)[C@@H](O[C@H]4O[C@H](CO)[C@@H](O)[C@H](O)[C@H]4O)[C@H](O)[C@H]3O)nn2)c2cc(OCOC)cc(OCOC)c2)cc(OCOC)c1 (stereo partly shown)"
targetsystem = "malignant pleural mesothelioma cell line NCI-H226"
quantitymeasured = "IC50"
observedvalue = "4.7 µM"


The record that follows has no IC50 shown yet.
Lab book: IC50 of COCOc1cc(/C=C/C(=O)CC(SCCOCCOCCOCCOCc2cn([C@H]3O[C@H](CO)[C@@H](O)[C@H](O)[C@@H]3O)nn2)c2cc(OCOC)cc(OCOC)c2)cc(OCOC)c1 (stereo partly shown) noted as 4.2 µM

----------
# Tested on: colorectal cancer cell line HCT116
# testSummary: Cell growth inhibitory activity, HCT116
# Type: cell-based
# details: Homo sapiens, HCT-116, read-out: IC50 HCT-116; Table 4; 72 hours
quantityMeasured: IC50 (µM)
Numbers only, in µM.

Lab book: IC50 of COc1cc(/C=C/C(=O)CC(=O)/C=C/c2ccc(O)c(OC)c2)ccc1O [curcumin, reference compound] noted as 16

----------
# testSummary: Turbidity measurement
# Assay type: physicochemical
# details: Table 1; turbidity/μm relative to curcumin = 1
quantityMeasured: Relative Value (turbidity)
Answers are plain numbers.

Observe how each entry below is paired with its result.
[[record]]
compound = "COCOc1cc(/C=C/C(=O)CC(SCCOCCOCCOCCOCc2cn([C@H]3O[C@@H](CO)[C@H](O)[C@@H](O)[C@@H]3O)nn2)c2cc(OCOC)cc(OCOC)c2)cc(OCOC)c1 (some centres unmarked) [GO-Y197]"
observedvalue = 0

[[record]]
compound = "COCOc1cc(/C=C/C(=O)CC(SCCOCCOCCOCCOCc2cn([C@@H]3O[C@H](CO)[C@@H](O[C@@H]4O[C@H](CO)[C@H](O)[C@H](O)[C@H]4O)[C@H](O)[C@H]3O)nn2)c2cc(OCOC)cc(OCOC)c2)cc(OCOC)c1 (some centres unmarked) [GO-Y199]"
observedvalue = 0.0014

[[record]]
compound = "COCOc1cc(/C=C/C(=O)CC(SCCOCCOCCOCCOCc2cn([C@@H]3O[C@H](CO)[C@@H](O[C@H]4O[C@H](CO)[C@@H](O)[C@H](O)[C@H]4O)[C@H](O)[C@H]3O)nn2)c2cc(OCOC)cc(OCOC)c2)cc(OCOC)c1 (some centres unmarked) [GO-Y200]"
observedvalue = 0

[[record]]
compound = "COCOc1cc(/C=C/C(=O)CC(SCC(=O)OC)c2cc(OCOC)cc(OCOC)c2)cc(OCOC)c1 (racemic) [GO-Y136, reference compound]"
observedvalue = 0.083

[[record]]
compound = "COc1cc(/C=C/C(=O)/C=C/c2ccc(O)c(OC)c2)ccc1O [GO-Y022, reference compound]"
observedvalue = 0.048


Parameters: items (list). Returns: Relative Value (turbidity) for each item.
1. COCOc1cc(/C=C/C(=O)CC(SCCOCCOCCOCCOCc2cn([C@H]3O[C@H](CO)[C@@H](O)[C@H](O)[C@@H]3O)nn2)c2cc(OCOC)cc(OCOC)c2)cc(OCOC)c1 (some centres unmarked) [GO-Y198]
2. COc1cc(/C=C/C(=O)CC(=O)/C=C/c2ccc(O)c(OC)c2)ccc1O [curcumin, reference compound]
3. COCOc1cc(C=CC(=O)CC(SCCOCCOCCOCCOCc2cn(C3OC(CO)C(O)C(O)C3O)nn2)c2cc(OCOC)cc(OCOC)c2)cc(OCOC)c1 (mixture of isomers) [GO-Y196]

(A)
0
1
0

----------
Please go through the items and note down their Ave Turbidity (NTU).
# testSummary: Turbidity measurement
# Type: physicochemical
# details: final conc. 8.3 μm in DDW
One number for each entry, in NTU.

Observe how each entry below is paired with its result.
[[record]]
compound = "COCOc1cc(/C=C/C(=O)CC(SCCOCCOCCOCCOCc2cn([C@H]3O[C@@H](CO)[C@H](O)[C@@H](O)[C@@H]3O)nn2)c2cc(OCOC)cc(OCOC)c2)cc(OCOC)c1 (some centres unmarked)"
quantitymeasured = "Ave Turbidity (NTU)"
observedvalue = 0

[[record]]
compound = "COc1cc(/C=C/C(=O)/C=C/c2ccc(O)c(OC)c2)ccc1O [GO-Y022, reference compound]"
quantitymeasured = "Ave Turbidity (NTU)"
observedvalue = 0.12

[[record]]
compound = "COCOc1cc(C=CC(=O)CC(SCCOCCOCCOCCOCc2cn(C3OC(CO)C(O)C(O)C3O)nn2)c2cc(OCOC)cc(OCOC)c2)cc(OCOC)c1 (mixture of isomers)"
quantitymeasured = "Ave Turbidity (NTU)"
observedvalue = 0

[[record]]
compound = "COCOc1cc(/C=C/C(=O)CC(SCCOCCOCCOCCOCc2cn([C@@H]3O[C@H](CO)[C@@H](O[C@H]4O[C@H](CO)[C@@H](O)[C@H](O)[C@H]4O)[C@H](O)[C@H]3O)nn2)c2cc(OCOC)cc(OCOC)c2)cc(OCOC)c1 (some centres unmarked)"
quantitymeasured = "Ave Turbidity (NTU)"
observedvalue = 0


The record that follows has no Ave Turbidity (NTU) shown yet.
Lab book: Ave Turbidity (NTU) of COCOc1cc(/C=C/C(=O)CC(SCCOCCOCCOCCOCc2cn([C@H]3O[C@H](CO)[C@@H](O)[C@H](O)[C@@H]3O)nn2)c2cc(OCOC)cc(OCOC)c2)cc(OCOC)c1 (some centres unmarked) noted as 0
